Collected activity coefficient values appear next to each entry.
- TEST_PROTOCOL: activity coefficient (dimensionless); of the first substance listed, at infinite dilution; xn = mol fraction of the nth substance listed
- APPLIED_CONDITIONS: 338.15 K; 100 kPa; Liquid; Chromatography; x1 = 0
No unit in the answer, please; the number alone is enough.

> print(dat)
                                   compound         readout.label  data.value
1  C#CCCCCCC [1-octyne] + CCCC[P+](CC)(CCCC)CCCC.CCOP(=O)([O-])OCC  activity coefficient        1.22
2  C1CCCCC1 [cyclohexane] + CCCC[P+](CC)(CCCC)CCCC.CCOP(=O)([O-])OCC  activity coefficient        2.13
3  CCCC(C)=O [pentan-2-one] + CCCC[P+](CC)(CCCC)CCCC.CCOP(=O)([O-])OCC  activity coefficient        1.03
4  c1ccsc1 [thiophene] + CCCC[P+](CC)(CCCC)CCCC.CCOP(=O)([O-])OCC  activity coefficient       0.587
5  C=CCCC [1-pentene] + CCCC[P+](CC)(CCCC)CCCC.CCOP(=O)([O-])OCC  activity coefficient        2.15

Asked: Please supply the value of reported activity coefficient for the item COC(C)(C)C [2-methoxy-2-methylpropane] + CCCC[P+](CC)(CCCC)CCCC.CCOP(=O)([O-])OCC
Given back: 1.86

Asked: Please supply the value of reported activity coefficient for the item Cc1ccccc1 [toluene] + CCCC[P+](CC)(CCCC)CCCC.CCOP(=O)([O-])OCC
Given back: 1.19

----------
- TEST_PROTOCOL: activity coefficient (dimensionless); of the first substance listed, at infinite dilution; xn = mol fraction of the nth substance listed
- APPLIED_CONDITIONS: 368.15 K; 100 kPa; Liquid; Chromatography; x1 = 0
Collected activity coefficient values appear next to each entry.
No unit in the answer, please; the number alone is enough.

Solved cases below.
> print(dat)
                                   molecule         readout.label  data.value
1  Cc1ccccc1C [1,2-dimethylbenzene] + CCCC[P+](CC)(CCCC)CCCC.CCOP(=O)([O-])OCC  activity coefficient        1.45
2  CCC(=O)CC [pentan-3-one] + CCCC[P+](CC)(CCCC)CCCC.CCOP(=O)([O-])OCC  activity coefficient        1.02
3  c1ccsc1 [thiophene] + CCCC[P+](CC)(CCCC)CCCC.CCOP(=O)([O-])OCC  activity coefficient       0.607
4  CCCCCCCCC [nonane] + CCCC[P+](CC)(CCCC)CCCC.CCOP(=O)([O-])OCC  activity coefficient        5.13
5  C#CCCC [1-pentyne] + CCCC[P+](CC)(CCCC)CCCC.CCOP(=O)([O-])OCC  activity coefficient       0.866

Asked: Please supply the value of reported activity coefficient for the item C#CCCCCCC [1-octyne] + CCCC[P+](CC)(CCCC)CCCC.CCOP(=O)([O-])OCC
Given back: 1.38

Asked: Please supply the value of reported activity coefficient for the item CCc1ccccc1 [ethylbenzene] + CCCC[P+](CC)(CCCC)CCCC.CCOP(=O)([O-])OCC
Given back: 1.44

Asked: Please supply the value of reported activity coefficient for the item CCCCC [pentane] + CCCC[P+](CC)(CCCC)CCCC.CCOP(=O)([O-])OCC
Given back: 2.7

Asked: Please supply the value of reported activity coefficient for the item CCCOCCC [dipropyl ether] + CCCC[P+](CC)(CCCC)CCCC.CCOP(=O)([O-])OCC
Given back: 2.43

Asked: Please supply the value of reported activity coefficient for the item C1COCCO1 [1,4-dioxane] + CCCC[P+](CC)(CCCC)CCCC.CCOP(=O)([O-])OCC
Given back: 1.02

Asked: Please supply the value of reported activity coefficient for the item C1=CCCCC1 [cyclohexene] + CCCC[P+](CC)(CCCC)CCCC.CCOP(=O)([O-])OCC
Given back: 1.63

Asked: Please supply the value of reported activity coefficient for the item CCC(C)(C)C [2,2-dimethylbutane] + CCCC[P+](CC)(CCCC)CCCC.CCOP(=O)([O-])OCC
Given back: 3.08

----------
- TEST_PROTOCOL: activity coefficient (dimensionless); of the first substance listed, at infinite dilution; xn = mol fraction of the nth substance listed
- APPLIED_CONDITIONS: 338.15 K; 100 kPa; Liquid; Chromatography; x1 = 0
Returns the class for an entry based on its activity coefficient. Class ranges: class 0: < 2; class 1: ≥ 2 and < 3; class 2: ≥ 3

Example entries begin here.
> print(dat)
                                   molecule  label.class
1  CC(C)CC(C)(C)C [2,2,4-trimethylpentane] + CCCC[P+](CC)(CCCC)CCCC.CCOP(=O)([O-])OCC      class 2
2  C=CCCCC [hex-1-ene] + CCCC[P+](CC)(CCCC)CCCC.CCOP(=O)([O-])OCC      class 1
3  CCCCCCCC [octane] + CCCC[P+](CC)(CCCC)CCCC.CCOP(=O)([O-])OCC      class 2
4  CCCCCCCCCC [decane] + CCCC[P+](CC)(CCCC)CCCC.CCOP(=O)([O-])OCC      class 2
5  c1ccncc1 [pyridine] + CCCC[P+](CC)(CCCC)CCCC.CCOP(=O)([O-])OCC      class 0
6  Cc1ccc(C)cc1 [1,4-dimethylbenzene] + CCCC[P+](CC)(CCCC)CCCC.CCOP(=O)([O-])OCC      class 0

Turning now to a further molecule:
Asked: Note: place this molecule into its band. Item: CCOCC [diethyl ether] + CCCC[P+](CC)(CCCC)CCCC.CCOP(=O)([O-])OCC
Given back: class 0

----------
- TEST_PROTOCOL: activity coefficient (dimensionless); of the first substance listed, at infinite dilution; xn = mol fraction of the nth substance listed
- APPLIED_CONDITIONS: 348.15 K; 100 kPa; Liquid; Chromatography; x1 = 0
READOUT_LABEL: activity coefficient
No unit in the answer, please; the number alone is enough.

Solved cases below.
> print(dat)
                                   compound  data.value
1  C1=CCCCC1 [cyclohexene] + CCCC[P+](CC)(CCCC)CCCC.CCOP(=O)([O-])OCC        1.67
2  CCCCCCCCC [nonane] + CCCC[P+](CC)(CCCC)CCCC.CCOP(=O)([O-])OCC        5.43
3  CCC(=O)CC [pentan-3-one] + CCCC[P+](CC)(CCCC)CCCC.CCOP(=O)([O-])OCC        1.02
4  CCCC(C)=O [pentan-2-one] + CCCC[P+](CC)(CCCC)CCCC.CCOP(=O)([O-])OCC        1.02
5  C#CCCCCCC [1-octyne] + CCCC[P+](CC)(CCCC)CCCC.CCOP(=O)([O-])OCC        1.28
6  C1CCCCC1 [cyclohexane] + CCCC[P+](CC)(CCCC)CCCC.CCOP(=O)([O-])OCC        2.09
7  c1ccsc1 [thiophene] + CCCC[P+](CC)(CCCC)CCCC.CCOP(=O)([O-])OCC       0.595

Asked: Please supply the value of reported activity coefficient for the item CCOCC [diethyl ether] + CCCC[P+](CC)(CCCC)CCCC.CCOP(=O)([O-])OCC
Given back: 1.75

----------
Collected activity coefficient values appear next to each entry.
- TEST_PROTOCOL: activity coefficient (dimensionless); of the first substance listed, at infinite dilution; xn = mol fraction of the nth substance listed
- APPLIED_CONDITIONS: 328.15 K; 100 kPa; Liquid; Chromatography; x1 = 0
No unit in the answer, please; the number alone is enough.

Solved cases below.
> print(dat)
                                   compound         readout.label  data.value
1  CCC(C)(C)C [2,2-dimethylbutane] + CCCC[P+](CC)(CCCC)CCCC.CCOP(=O)([O-])OCC  activity coefficient        3.34
2  CCOCC [diethyl ether] + CCCC[P+](CC)(CCCC)CCCC.CCOP(=O)([O-])OCC  activity coefficient        1.79
3  C=Cc1ccccc1 [styrene] + CCCC[P+](CC)(CCCC)CCCC.CCOP(=O)([O-])OCC  activity coefficient       0.971
4  C#CCCCC [1-hexyne] + CCCC[P+](CC)(CCCC)CCCC.CCOP(=O)([O-])OCC  activity coefficient       0.849
5  C=CCCCC [hex-1-ene] + CCCC[P+](CC)(CCCC)CCCC.CCOP(=O)([O-])OCC  activity coefficient        2.59
6  CCCCC [pentane] + CCCC[P+](CC)(CCCC)CCCC.CCOP(=O)([O-])OCC  activity coefficient        2.91

Asked: Please supply the value of reported activity coefficient for the item Cc1ccc(C)cc1 [1,4-dimethylbenzene] + CCCC[P+](CC)(CCCC)CCCC.CCOP(=O)([O-])OCC
Given back: 1.64

Asked: Please supply the value of reported activity coefficient for the item O [water] + CCCC[P+](CC)(CCCC)CCCC.CCOP(=O)([O-])OCC
Given back: 0.101

Asked: Please supply the value of reported activity coefficient for the item C=CCCCCCCCC [1-decene] + CCCC[P+](CC)(CCCC)CCCC.CCOP(=O)([O-])OCC
Given back: 5.2

Asked: Please supply the value of reported activity coefficient for the item c1ccccc1 [benzene] + CCCC[P+](CC)(CCCC)CCCC.CCOP(=O)([O-])OCC
Given back: 0.871

Asked: Please supply the value of reported activity coefficient for the item C#CCCC [1-pentyne] + CCCC[P+](CC)(CCCC)CCCC.CCOP(=O)([O-])OCC
Given back: 0.725

Asked: Please supply the value of reported activity coefficient for the item CC(C)=O [acetone] + CCCC[P+](CC)(CCCC)CCCC.CCOP(=O)([O-])OCC
Given back: 0.835

Asked: Please supply the value of reported activity coefficient for the item CC(C)CC(C)(C)C [2,2,4-trimethylpentane] + CCCC[P+](CC)(CCCC)CCCC.CCOP(=O)([O-])OCC
Given back: 4.38

Asked: Please supply the value of reported activity coefficient for the item CCCC(C)=O [pentan-2-one] + CCCC[P+](CC)(CCCC)CCCC.CCOP(=O)([O-])OCC
Given back: 1.03

Asked: Please supply the value of reported activity coefficient for the item CCCCCCCC [octane] + CCCC[P+](CC)(CCCC)CCCC.CCOP(=O)([O-])OCC
Given back: 4.87
